Field: 20 μM Average (% pi) ± σ. Provide a value for each of the compounds that follow.
# Tested on: L929 mouse fibroblasts cells
# Assay Details: Cytotoxicity, propidium iodide fluorescence method
# Type: cell-based
# Setup Conditions: 20 μM, 24-h incubation

CC(=O)c1ccc(OCCCCCCOc2ccc(C(C)=O)cc2)cc1 ... 8.05 ± 3.58%
CC(=O)c1ccc(OCCCCCOc2ccc(C(C)=O)cc2)cc1 ... 11.86 ± 2.98%

Look up 20 μM Average (% pi) ± σ for the entries below, preserving their order.
1. O=C(/C=C/c1ccco1)c1ccc(O)cc1
2. O=C(/C=C/C(Br)=C\c1ccccc1)c1ccc(OCCCOc2ccc(C(=O)/C=C/C(Br)=C\c3ccccc3)cc2)cc1

2.39 ± 1.08%
28.76 ± 2.74%

Look up 20 μM Average (% pi) ± σ for the entries below, preserving their order.
1. CC(/C=C/C(=O)c1ccc(O)cc1)=C\c1ccccc1
2. O=C(/C=C/C1=C2C=CC=CC2NC1)c1ccc(O)cc1 (stereo not shown)

["1.84 ± 2.05%", "3.25 ± 2.6%"]

Indicate the recorded 20 μM Average (% pi) ± σ value for this compound: O=C(/C=C/C=C/c1ccccc1)c1ccc(O)cc1
9.24 ± 6.49%

###

# Assayed Target: soybean lipoxygenase (Glycine max, UniProt P08170)
# Sequence (P08170 1-839): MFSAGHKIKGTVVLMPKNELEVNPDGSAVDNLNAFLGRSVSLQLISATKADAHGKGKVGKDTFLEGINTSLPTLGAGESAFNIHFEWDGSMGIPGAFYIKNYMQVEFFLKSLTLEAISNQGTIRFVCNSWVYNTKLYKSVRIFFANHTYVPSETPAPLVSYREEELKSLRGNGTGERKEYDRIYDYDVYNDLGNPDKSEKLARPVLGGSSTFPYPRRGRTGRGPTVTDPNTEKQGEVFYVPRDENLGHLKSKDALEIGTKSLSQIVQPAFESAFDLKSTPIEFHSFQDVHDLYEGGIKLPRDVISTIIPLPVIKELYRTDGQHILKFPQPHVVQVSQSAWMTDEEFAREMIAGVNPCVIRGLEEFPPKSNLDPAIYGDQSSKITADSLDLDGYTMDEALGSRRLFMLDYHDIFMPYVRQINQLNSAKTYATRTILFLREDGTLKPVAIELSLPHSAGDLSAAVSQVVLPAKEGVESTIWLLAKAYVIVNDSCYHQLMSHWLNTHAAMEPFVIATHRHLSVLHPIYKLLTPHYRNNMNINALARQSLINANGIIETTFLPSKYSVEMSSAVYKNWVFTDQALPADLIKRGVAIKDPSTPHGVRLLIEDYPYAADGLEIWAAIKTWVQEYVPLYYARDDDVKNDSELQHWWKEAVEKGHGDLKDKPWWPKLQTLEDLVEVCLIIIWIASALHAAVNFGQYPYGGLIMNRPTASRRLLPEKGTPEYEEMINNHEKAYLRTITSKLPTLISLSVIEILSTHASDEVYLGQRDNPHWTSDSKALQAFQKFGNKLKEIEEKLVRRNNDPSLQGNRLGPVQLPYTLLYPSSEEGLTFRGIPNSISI
# Assay Details: biochemical
# Type: biochemical
Assay Readout: pIC50
Give bare numbers, as −log10 of the molar value.

Indicate the recorded pIC50 value for this molecule: O=C(/C=C/C=C/c1ccc([N+](=O)[O-])cc1)c1ccc(OCCCOc2ccc(C(=O)/C=C/C=C/c3ccc([N+](=O)[O-])cc3)cc2)cc1 [c11]
4.30

###

# Assay Details: Lipophilicity as RM values by RP-TLC
# Type: physicochemical
# Design: key: RM = log[(1/Rf) − 1]
# Setup Conditions: methanol/water 70/30, SD < 10%
Quick rule: RM of at least -0.8 means Condition met, below that means Condition not met.

Solved entries (count: 5):
O=C(/C=C/C=C/c1ccccc1)c1ccc(O)cc1 ... Condition met
CC(=O)c1ccc(OCCCCCOc2ccc(C(C)=O)cc2)cc1 ... Condition met
O=C(/C=C/c1cccs1)c1ccc(OCCCOc2ccc(C(=O)/C=C/c3cccs3)cc2)cc1 ... Condition met
O=C(/C=C/C=C/c1ccc([N+](=O)[O-])cc1)c1ccc(O)cc1 ... Condition not met
O=C(/C=C/c1ccccc1)c1ccc(O)cc1 ... Condition met

Has CC(=O)c1ccc(OCCCCCCCCOc2ccc(C(C)=O)cc2)cc1 a recorded RM greater than or equal to -0.8?
Condition met

Has CN(C)c1ccc(/C=C/C=C/C(=O)c2ccc(OCCCCOc3ccc(C(=O)/C=C/C=C/c4ccc(N(C)C)cc4)cc3)cc2)cc1 a recorded RM greater than or equal to -0.8?
Condition met

Has O=C(/C=C/C=C/c1ccccc1)c1ccc(OCCCOc2ccc(C(=O)/C=C/C=C/c3ccccc3)cc2)cc1 a recorded RM greater than or equal to -0.8?
Condition met

Has CN(C)c1ccc(/C=C/C=C/C(=O)c2ccccc2O)cc1 a recorded RM greater than or equal to -0.8?
Condition met

Has CC(=O)c1ccc(OCCCCOc2ccc(C(C)=O)cc2)cc1 a recorded RM greater than or equal to -0.8?
Condition met

Has Cc1ccc(/C=C/C(=O)c2ccc(OCCCOc3ccc(C(=O)/C=C/c4ccc(C)o4)cc3)cc2)o1 a recorded RM greater than or equal to -0.8?
Condition not met

###

Field: 1 μM Average (% pi) ± σ. Provide a value for each of the molecules that follow.
# Test system: L929 mouse fibroblasts cells
# Assay Details: Cytotoxicity, propidium iodide fluorescence method
# Type: cell-based
# Setup Conditions: 1 μM, 24-h incubation
Answers are plain numbers, in %.

Please review the following examples before continuing.
CC(=O)c1ccc(OCCCCCCOc2ccc(C(C)=O)cc2)cc1 ... 4.47
CC(=O)c1ccc(OCCCCCCCOc2ccc(C(C)=O)cc2)cc1 ... 0.37
O=C(/C=C/C(Br)=C\c1ccccc1)c1ccc(O)cc1 ... 0.55

Look up 1 μM Average (% pi) ± σ for the entries below, preserving their order.
1. O=C(/C=C/c1cccs1)c1ccc(O)cc1
2. CC(=O)c1ccc(OCCCCOc2ccc(C(C)=O)cc2)cc1
3. O=C(/C=C/C1=C2C=CC=CC2NC1)c1ccc(O)cc1 (stereo not shown)
4. Cc1ccc(/C=C/C(=O)c2ccc(O)cc2)o1
5. O=C(/C=C/c1ccco1)c1ccc(OCCCOc2ccc(C(=O)/C=C/c3ccco3)cc2)cc1
6. Cc1ccc(/C=C/C(=O)c2ccc(OCCCOc3ccc(C(=O)/C=C/c4ccc(C)o4)cc3)cc2)o1
7. O=C(/C=C/C=C/c1ccccc1)c1ccc(O)cc1
8. O=C(/C=C/c1ccco1)c1ccc(O)cc1

11.36
14.06
1.71
0.88
18.10
13.22
6.85
3.03

###

# Assayed Target: soybean lipoxygenase (Glycine max)
# Sequence (P08170 1-839): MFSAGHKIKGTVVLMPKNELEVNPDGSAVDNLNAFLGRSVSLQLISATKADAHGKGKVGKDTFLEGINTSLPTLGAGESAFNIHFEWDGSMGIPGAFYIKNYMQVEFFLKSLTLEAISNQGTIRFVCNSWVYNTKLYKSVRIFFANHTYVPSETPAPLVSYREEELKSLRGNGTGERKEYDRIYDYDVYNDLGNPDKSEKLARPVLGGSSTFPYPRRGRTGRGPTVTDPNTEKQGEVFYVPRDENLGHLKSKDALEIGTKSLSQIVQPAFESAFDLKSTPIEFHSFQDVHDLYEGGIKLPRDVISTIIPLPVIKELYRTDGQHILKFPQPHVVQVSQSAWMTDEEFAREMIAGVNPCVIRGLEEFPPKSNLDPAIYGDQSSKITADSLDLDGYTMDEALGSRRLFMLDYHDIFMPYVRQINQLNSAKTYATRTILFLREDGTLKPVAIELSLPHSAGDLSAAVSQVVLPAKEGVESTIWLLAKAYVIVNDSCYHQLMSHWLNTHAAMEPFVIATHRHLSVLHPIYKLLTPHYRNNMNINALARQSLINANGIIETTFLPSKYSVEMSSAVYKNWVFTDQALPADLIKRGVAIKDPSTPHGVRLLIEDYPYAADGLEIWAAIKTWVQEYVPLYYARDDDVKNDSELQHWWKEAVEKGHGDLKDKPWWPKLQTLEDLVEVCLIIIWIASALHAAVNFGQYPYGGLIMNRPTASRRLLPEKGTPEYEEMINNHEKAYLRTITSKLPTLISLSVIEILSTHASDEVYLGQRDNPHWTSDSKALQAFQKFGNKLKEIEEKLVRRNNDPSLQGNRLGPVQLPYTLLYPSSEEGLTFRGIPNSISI
# Assay Details: biochemical
# Format: biochemical
# Setup Conditions: soybean LOX; read-out: LOX IC50
Assay Readout: pIC50
Give bare numbers, as −log10 of the molar value.

O=C(/C=C/c1ccco1)c1ccc(OCCCOc2ccc(C(=O)/C=C/c3ccco3)cc2)cc1 [c10] ... 4.07

Look up pIC50 for the entries below, preserving their order.
1. CN(C)c1ccc(/C=C/C=C/C(=O)c2ccc(OCCCCCCCOc3ccc(C(=O)/C=C/C=C/c4ccc(N(C)C)cc4)cc3)cc2)cc1 [evi]
2. O=C(/C=C/c1ccc(OCc2ccc(Br)cc2)cc1)c1ccccc1O [b1]
3. CN(C)c1ccc(/C=C/C=C/C(=O)c2ccccc2O)cc1 [b3]
4. CN(C)c1ccc(/C=C/C=C/C(=O)c2ccc(OCCOc3ccc(C(=O)/C=C/C=C/c4ccc(N(C)C)cc4)cc3)cc2)cc1 [ei]

4.12
4.25
4.24
4.20
